As shown below, each of these binders has a reported Cell Binding (FOB) value.
SYSTEM: T1, cynomolgus macaque (Macaca fascicularis) CD39 (Macaca fascicularis, UniProt P49961 7-510 (human entry))
T1 construct: On engineered CHO cells and on primary cyno B cells and monocytes; also called cyno CD39; cCD39
T1 chain: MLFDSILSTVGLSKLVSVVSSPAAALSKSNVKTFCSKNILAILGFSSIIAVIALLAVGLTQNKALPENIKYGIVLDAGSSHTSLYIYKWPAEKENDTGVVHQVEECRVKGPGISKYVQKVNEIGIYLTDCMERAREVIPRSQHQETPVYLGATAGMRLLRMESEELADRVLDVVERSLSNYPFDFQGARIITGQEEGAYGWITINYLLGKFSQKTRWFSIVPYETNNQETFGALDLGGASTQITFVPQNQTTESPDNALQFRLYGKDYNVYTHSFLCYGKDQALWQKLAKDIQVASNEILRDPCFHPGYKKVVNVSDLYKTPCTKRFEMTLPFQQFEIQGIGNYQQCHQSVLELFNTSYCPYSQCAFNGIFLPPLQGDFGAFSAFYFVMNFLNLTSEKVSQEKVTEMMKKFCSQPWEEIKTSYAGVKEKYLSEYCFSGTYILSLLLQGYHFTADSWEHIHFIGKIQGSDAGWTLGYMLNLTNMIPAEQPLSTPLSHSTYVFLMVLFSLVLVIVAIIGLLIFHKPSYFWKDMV
EXPERIMENT NOTES: flow cytometry, 100 nM IgG, MFI on CHO-cCD39 / MFI on parental CHO;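 also: antibodies bound to the cells for 30 min in PBS, then bound IgG was revealed with a fluorescent goat anti-human IgG secondary antibody, 20 min on ice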

>>> recorded_measurement("31421 (antibody, V domains shown) VH: QVQLVQSGAEVKKPGASVKVSCKASGYTFFSYYMYWVRQAPGQGLEWMGVINPLGGGTSYAQKFQGRVTMTRDTSTSTVYMELSSLRSEDTAVYYCARGKREGGTEYLRHWGQGTLVTVSS VL: EIVLTQSPGTLSLSPGERATLSCKASESVSSSYLAWYQQKPGQAPRLLIYYASSRATGIPDRFSGSGSGTDFTLTISRLEPEDFAVYYCQQYHRRITFGGGTKVEIK")
"3050 fold over background"

Kindly review the next binder as well.
Which Cell Binding (FOB) value is on record for 27596 (antibody, human IgG4 S228P, kappa, V domains shown) VH: QVQLVQSGAEVKKPGSSVKVSCKASGGTFSSYAISWVRQAPGQGLEWMGGIIPIFGTANYAQKFQGRVTITADESTSTAYMELSSLRSEDTAVYYCARDPLGIRKHWFDPWGQGTLVTVSS VL: EIVMTQSPATLSLSPGERATLSCRASQSVSSYLAWYQQKPGQAPRLLIYDASNRATGIPARFSGSGSGTDFTLTISSLEPEDFAVYYCQQHTVWPITFGGGTKVEIKR ? 257 fold over background
